Values compiled from paper PMC10556424.

# targetOrTestSystem: CYP2C19 (Homo sapiens, UniProt P33261)
# Sequence (P33261 whole entry): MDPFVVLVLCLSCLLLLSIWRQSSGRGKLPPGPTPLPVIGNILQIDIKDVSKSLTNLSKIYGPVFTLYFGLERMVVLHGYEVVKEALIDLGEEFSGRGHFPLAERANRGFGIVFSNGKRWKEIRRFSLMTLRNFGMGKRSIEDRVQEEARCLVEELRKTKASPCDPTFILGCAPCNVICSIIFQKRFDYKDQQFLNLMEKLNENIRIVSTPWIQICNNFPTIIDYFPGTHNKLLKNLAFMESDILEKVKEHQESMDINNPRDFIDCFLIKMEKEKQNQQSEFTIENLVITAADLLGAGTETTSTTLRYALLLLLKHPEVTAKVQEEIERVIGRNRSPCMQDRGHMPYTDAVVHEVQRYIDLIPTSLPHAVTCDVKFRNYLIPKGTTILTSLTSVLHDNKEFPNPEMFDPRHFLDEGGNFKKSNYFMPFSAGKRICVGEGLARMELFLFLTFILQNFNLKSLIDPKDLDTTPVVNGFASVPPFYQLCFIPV
# experimentalDetails: CYP450 inhibition in human liver microsomes
# Type: in vitro ADME
# protocolConditions: pooled human liver microsomes, pH 7.4, probe (S)-mephenytoin (50 μM)
Please go through the items and note down their inhibition at 10 min, 10 µM.
Unit % implied. Number only.

Exercise: Tell me the measured inhibition at 10 min, 10 µM of O=C(Nc1cc(F)c(F)c(F)c1)[C@H]1CCN(C(=O)c2ccc(C3CC3)[nH]2)C1 [CU02] , please.
Solution: 53

Exercise: What value of inhibition at 10 min, 10 µM has been recorded for this entry: O=C(Nc1cc(F)c(F)c(F)c1)[C@H]1CCN(C(=O)c2cc3ccccc3[nH]2)C1 [CU03]
Solution: 63
